target: AR / CBP ternary complex (Homo sapiens, UniProt P10275+Q92793); assay: Ternary complex formation assay (sandwich ELISA, AR capture, CBP antibody detection) in VCaP cell lysates; type: cell-based; conditions: treated 1.5 hours, rabbit CBP or p300 antibody detection, average, read-out: Average Ternary Complex
Sequence (P10275 whole entry): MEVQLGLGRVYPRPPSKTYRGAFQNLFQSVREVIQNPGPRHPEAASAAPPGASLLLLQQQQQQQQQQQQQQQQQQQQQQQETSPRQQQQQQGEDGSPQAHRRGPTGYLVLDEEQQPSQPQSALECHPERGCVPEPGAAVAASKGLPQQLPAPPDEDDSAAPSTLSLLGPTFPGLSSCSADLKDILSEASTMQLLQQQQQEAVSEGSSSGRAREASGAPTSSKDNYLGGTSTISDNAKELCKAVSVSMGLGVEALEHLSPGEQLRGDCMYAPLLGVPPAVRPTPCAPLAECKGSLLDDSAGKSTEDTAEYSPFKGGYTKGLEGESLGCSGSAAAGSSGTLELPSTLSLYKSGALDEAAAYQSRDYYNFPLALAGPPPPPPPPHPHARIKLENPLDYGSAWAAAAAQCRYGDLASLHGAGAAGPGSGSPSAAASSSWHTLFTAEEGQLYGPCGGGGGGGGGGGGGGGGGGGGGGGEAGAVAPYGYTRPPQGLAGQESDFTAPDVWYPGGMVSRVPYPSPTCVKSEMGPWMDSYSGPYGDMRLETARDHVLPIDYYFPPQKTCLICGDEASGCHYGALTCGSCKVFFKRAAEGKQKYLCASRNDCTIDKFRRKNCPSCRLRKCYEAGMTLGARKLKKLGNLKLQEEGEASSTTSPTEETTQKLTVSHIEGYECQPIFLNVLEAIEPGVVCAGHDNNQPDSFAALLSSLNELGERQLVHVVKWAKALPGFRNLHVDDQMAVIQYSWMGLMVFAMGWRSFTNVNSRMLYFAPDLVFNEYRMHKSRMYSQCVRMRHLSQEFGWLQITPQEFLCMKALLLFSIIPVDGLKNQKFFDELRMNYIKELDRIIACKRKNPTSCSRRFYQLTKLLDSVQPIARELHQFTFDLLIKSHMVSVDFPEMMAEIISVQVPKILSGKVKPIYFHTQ
Sequence (Q92793 2-2442): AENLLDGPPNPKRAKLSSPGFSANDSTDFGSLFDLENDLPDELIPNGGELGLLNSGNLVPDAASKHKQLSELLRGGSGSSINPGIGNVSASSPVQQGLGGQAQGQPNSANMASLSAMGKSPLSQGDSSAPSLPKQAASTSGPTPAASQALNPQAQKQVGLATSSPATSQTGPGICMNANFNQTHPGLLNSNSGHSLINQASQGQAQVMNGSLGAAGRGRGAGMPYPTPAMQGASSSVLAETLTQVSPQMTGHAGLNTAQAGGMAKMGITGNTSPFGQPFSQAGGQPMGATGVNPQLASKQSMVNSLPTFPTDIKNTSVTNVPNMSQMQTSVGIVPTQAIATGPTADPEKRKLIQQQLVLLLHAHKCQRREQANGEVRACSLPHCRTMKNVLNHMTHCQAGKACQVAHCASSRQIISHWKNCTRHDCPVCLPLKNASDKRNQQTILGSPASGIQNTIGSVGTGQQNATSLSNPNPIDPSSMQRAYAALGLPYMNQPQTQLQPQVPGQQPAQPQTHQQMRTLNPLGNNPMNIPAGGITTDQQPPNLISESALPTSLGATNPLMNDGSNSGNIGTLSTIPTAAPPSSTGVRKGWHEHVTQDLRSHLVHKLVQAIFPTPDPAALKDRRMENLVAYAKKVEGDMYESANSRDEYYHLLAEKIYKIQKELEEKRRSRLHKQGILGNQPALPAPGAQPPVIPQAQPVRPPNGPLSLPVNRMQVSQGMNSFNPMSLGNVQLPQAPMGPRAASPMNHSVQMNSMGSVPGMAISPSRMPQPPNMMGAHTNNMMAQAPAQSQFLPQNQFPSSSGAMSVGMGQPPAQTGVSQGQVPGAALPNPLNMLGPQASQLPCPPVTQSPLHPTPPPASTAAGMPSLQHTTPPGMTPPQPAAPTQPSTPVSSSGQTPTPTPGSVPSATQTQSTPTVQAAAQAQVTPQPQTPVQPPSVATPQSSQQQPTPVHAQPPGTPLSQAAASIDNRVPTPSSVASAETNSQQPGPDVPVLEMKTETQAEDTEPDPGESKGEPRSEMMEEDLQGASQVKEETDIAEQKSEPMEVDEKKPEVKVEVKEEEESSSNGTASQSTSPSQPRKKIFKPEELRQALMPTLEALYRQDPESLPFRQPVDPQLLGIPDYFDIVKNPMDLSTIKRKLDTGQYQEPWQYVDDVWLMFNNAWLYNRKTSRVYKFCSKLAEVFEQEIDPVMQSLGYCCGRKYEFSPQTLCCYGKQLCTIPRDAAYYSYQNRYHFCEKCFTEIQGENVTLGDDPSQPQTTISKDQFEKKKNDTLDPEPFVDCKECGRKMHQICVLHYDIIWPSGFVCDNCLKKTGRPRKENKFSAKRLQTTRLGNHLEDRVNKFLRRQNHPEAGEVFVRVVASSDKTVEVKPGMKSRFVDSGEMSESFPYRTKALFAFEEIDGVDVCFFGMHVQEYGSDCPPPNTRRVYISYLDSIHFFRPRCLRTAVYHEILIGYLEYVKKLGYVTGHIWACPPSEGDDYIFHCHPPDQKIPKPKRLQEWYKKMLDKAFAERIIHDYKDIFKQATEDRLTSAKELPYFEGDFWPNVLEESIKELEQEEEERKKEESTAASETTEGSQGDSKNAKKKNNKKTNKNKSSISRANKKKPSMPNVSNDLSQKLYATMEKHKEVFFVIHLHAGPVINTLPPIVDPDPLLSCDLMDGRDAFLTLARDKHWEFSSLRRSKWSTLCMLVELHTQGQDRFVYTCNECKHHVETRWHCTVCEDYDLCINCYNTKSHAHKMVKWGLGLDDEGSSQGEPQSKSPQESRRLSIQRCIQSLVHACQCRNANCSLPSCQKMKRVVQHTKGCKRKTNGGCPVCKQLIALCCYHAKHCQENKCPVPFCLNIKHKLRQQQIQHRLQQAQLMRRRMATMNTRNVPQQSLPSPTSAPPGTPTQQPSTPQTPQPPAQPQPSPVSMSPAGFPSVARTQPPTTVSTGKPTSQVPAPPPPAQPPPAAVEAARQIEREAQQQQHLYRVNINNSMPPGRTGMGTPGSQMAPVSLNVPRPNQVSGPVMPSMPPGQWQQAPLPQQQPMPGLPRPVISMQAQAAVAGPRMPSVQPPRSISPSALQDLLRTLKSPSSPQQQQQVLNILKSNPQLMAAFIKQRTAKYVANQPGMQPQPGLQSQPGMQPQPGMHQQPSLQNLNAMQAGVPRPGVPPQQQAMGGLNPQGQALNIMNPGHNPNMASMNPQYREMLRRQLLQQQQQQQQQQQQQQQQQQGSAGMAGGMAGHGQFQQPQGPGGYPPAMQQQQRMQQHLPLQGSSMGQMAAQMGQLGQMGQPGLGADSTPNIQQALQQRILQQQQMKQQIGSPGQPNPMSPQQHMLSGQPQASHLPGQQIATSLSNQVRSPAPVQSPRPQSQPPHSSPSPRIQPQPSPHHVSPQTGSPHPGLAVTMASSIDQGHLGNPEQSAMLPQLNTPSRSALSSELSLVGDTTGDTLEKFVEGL
recordedMetric: EC50

CC(=O)N1CCc2c(c(N3CCCc4cc(-c5cnn(C)c5)c(C(F)F)cc43)nn2C2CCN(C3CC4(C3)CN(c3ccc(C(=O)N[C@H]5CC[C@H](Oc6ccc(C#N)c(Cl)c6)CC5)nn3)C4)CC2)C1 [Compound 229] = < 1 nM
CC(=O)N1CCc2c(c(N3CCCc4cc(-c5cnn(C)c5)c(C(F)F)cc43)nn2C2CCN([C@@H]3CCCN(c4ccc(C(=O)N[C@H]5CC[C@H](Oc6ccc(C#N)c(Cl)c6)CC5)nn4)C3)CC2)C1 [Compound 259] = 1 to 10 nM
CC(=O)N1CCc2c(c(N3CCCc4cc(-c5cnn(C)c5)c(C(F)F)cc43)nn2[C@H]2CC[C@H](C3CCC4(CC3)CN(c3ccc(C(=O)N[C@H]5CC[C@H](Oc6ccc(C#N)c(Cl)c6)CC5)nn3)C4)CC2)C1 [Compound 241] = 1 to 10 nM
CC(=O)N1CCc2c(c(N3CCCc4cc(C#N)ccc43)nn2C2CCN(C[C@H]3CCN(c4ccc(C(=O)N[C@H]5CC[C@H](Oc6ccc(C#N)c(Cl)c6)CC5)nn4)C[C@H]3C)CC2)C1 [Compound 103] = < 1 nM
CC(=O)N1CCc2c(c(N3CCCc4cc(-c5cnn(C)c5)c(C(F)F)cc43)nn2C2CCN(C[C@H]3[C@H](C)CN(c4ccc(C(=O)N[C@H]5CC[C@H](Oc6ccc(C#N)c(C)c6)CC5)nn4)C[C@@H]3C)CC2)C1 [Compound 289] = < 1 nM
CC(=O)N1CCc2c(c(-c3cccc4cc(-c5cnn(C)c5)ncc34)nn2C2CCN(C(=O)C3CCN(c4ccc(C(=O)N[C@H]5CC[C@H](Oc6ccc(C#N)c(Cl)c6)CC5)cc4)CC3)CC2)C1 [Compound 164] = < 1 nM

Okay, here is my list. What is EC50 for each of these?
1. CC(=O)N1CCc2c(c(N3CCCc4cc(-c5cnn(C)c5)c(C(F)F)cc43)nn2C2CCN(CC3(F)CCN(c4ccc(C(=O)N[C@H]5CC[C@H](Oc6ccc(C#N)c(Cl)c6)CC5)nn4)CC3)CC2)C1 [Compound 142]
2. CC(=O)N1CCc2c(c(N3CCCc4cc(-c5cnn(C)c5)c(C(F)F)cc43)nn2C2CCN(CC3CCN(c4ccc(C(=O)N[C@H]5CC[C@H](Oc6ccc(C#N)c(Cl)c6)CC5)nn4)CC3)CC2)C1 [Compound 16]
3. Cc1cc2c(N3CCN(C)c4cc(-c5cnn(C)c5)c(C#N)cc43)cc(OCCOC3CCN(c4ccc(C(=O)N[C@H]5CC[C@H](Oc6ccc(C#N)c(Cl)c6)CC5)nn4)CC3)cc2n(C)c1=O [Compound 39]
4. CC(=O)N1CCc2c(c(N3CCCc4cc(-c5ccn(C)n5)c(C(F)F)cc43)nn2C2CCN(CC3CCN(c4ccc(C(=O)N[C@H]5CC[C@H](Oc6ccc(C#N)c(Cl)c6)CC5)nn4)CC3)CC2)C1 [Compound 254]
5. CN1C(=O)CCc2cc(N3CCCc4cc(-c5ccc(CCC6CCN(c7ccc(C(=O)N[C@H]8CC[C@H](Oc9ccc(C#N)c(Cl)c9)CC8)nn7)CC6)nc5)c(C(F)F)cc43)ccc21 [Compound 59]
6. CC(=O)N1CCc2c(c(N3CCCc4cc(-c5cnn(C)c5)c(C(F)F)cc43)nn2C2CCN(C(=O)C3CCN(c4nnc(C(=O)N[C@H]5CC[C@H](Oc6ccc(C#N)c(Cl)c6)CC5)s4)CC3)CC2)C1 [Compound 226]

1. < 1 nM
2. < 1 nM
3. < 1 nM
4. < 1 nM
5. > 100 nM
6. < 1 nM

Okay, here is my list. What is EC50 for each of these?
1. CC(=O)N1CCc2c(c(N3CCCc4cc(-c5cnn(C)c5)c(C(F)F)cc43)nn2C2CCN([C@H]3CCN(c4ccc(C(=O)N[C@H]5CC[C@H](Oc6ccc(C#N)c(Cl)c6)CC5)nn4)C3)CC2)C1 [Compound 221]
2. CC(=O)N1CCc2c(c(N3CCCc4cc(-c5cnn(C)c5)c(C(F)F)cc43)nn2[C@H]2CC[C@H](CC3CCN(c4ccc(C(=O)N[C@H]5CC[C@H](Oc6ccc(C#N)c(Cl)c6)CC5)nn4)CC3)CC2)C1 [Compound 145]
3. CC(=O)N1CCc2c(c(N3CCCc4cc(-c5cnn(C)c5)ccc43)nn2C2CCN(CC3CCN(c4ncc(C(=O)N[C@H]5CC[C@H](Oc6ccc(C#N)c(Cl)c6)CC5)cn4)CC3)CC2)C1 [Compound 11]
4. CC(=O)N1CCc2c(c(N3CCCc4cc(-c5cnn(C)c5)c(C(F)F)cc43)nn2C2CCN(CC3C(C)CN(c4ccc(C(=O)N[C@H]5CC[C@H](Oc6ccc(C#N)c(C(F)(F)F)c6)CC5)nn4)CC3C)CC2)C1 (stereo partly drawn) [Compound 290]
5. CC(=O)N1CCc2c(c(-c3cccc4cc(C5CC5)ncc34)nn2C2CCN(C(=O)C3CCN(c4ccc(C(=O)N[C@H]5CC[C@H](Oc6ccc(C#N)c(Cl)c6)CC5)nn4)CC3)CC2)C1 [Compound 170]
6. COC(=O)N1c2ccc3c(nc(Cc4ccccc4)n3[C@H]3CCC[C@H](CN4CCN(c5ccc(C(=O)N[C@H]6CC[C@H](Oc7ccc(C#N)c(Cl)c7)CC6)nn5)CC4)C3)c2CC[C@@H]1C [Compound 232]

1: > 100 nM; 2: < 1 nM; 3: < 1 nM; 4: < 1 nM; 5: < 1 nM; 6: 1 to 10 nM
